# target_under_test: T1, ALPI expressed on the surface of CHO cells (CHO-ALPI) (Homo sapiens, UniProt P09923)
# T1 construct: expressed in transfected cells
# T1 sequence (P09923 20-503 limits assumed): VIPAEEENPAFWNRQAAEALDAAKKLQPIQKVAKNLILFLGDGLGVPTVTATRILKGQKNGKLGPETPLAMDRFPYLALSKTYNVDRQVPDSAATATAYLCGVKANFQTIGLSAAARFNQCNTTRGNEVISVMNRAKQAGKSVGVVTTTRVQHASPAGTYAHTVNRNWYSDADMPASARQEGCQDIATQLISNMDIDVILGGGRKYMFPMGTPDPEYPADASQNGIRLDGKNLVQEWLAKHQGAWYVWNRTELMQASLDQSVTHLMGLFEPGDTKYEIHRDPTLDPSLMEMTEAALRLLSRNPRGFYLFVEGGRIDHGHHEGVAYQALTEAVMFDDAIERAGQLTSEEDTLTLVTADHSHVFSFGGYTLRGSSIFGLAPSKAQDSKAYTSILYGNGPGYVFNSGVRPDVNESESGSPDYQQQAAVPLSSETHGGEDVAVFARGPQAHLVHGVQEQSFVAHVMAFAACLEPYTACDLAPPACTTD
# assay_name: Cell-surface binding by flow cytometry, CHO-ALPI
# details: VHH His proteins, flow cytometry, up to 350 nM
# Method: C-terminal His tagged VHH proteins were assessed for ALPP, ALPPL2, ALPI and ALPL cell-surface binding by flow cytometry. Binders encompassing different epitope bins were screened on CHO cells stably expressing ALPP, ALPPL2, ALPI or ALPL. […] Cell surface binding of test agents to hALPP isoforms was characterized in four CHO-ALPP isoform stably transfected cell lines (CHO-ALPP, CHO-ALPPL2, CHO-ALPI and CHO-ALPL) and the resulting KDapp values determined. […]
measured_attribute: KDapp CHO-ALPI

Here's what some known entries look like.
molecule	recorded_value
E10: ALPP/ALPPL2 targeting VHH domain, SEQ ID NO: 31 (protein) VHH: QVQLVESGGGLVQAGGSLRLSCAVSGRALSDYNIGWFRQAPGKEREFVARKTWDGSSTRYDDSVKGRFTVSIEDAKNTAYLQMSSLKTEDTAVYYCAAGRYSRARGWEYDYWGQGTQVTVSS	No binding
D04: ALPP/ALPPL2 targeting VHH domain, SEQ ID NO: 26 (protein) VHH: QVQLVESGGGLVQPGGSLRLSCAASESTFSINVMGWYRQAPGKQRELVATITSGDITNYADSVKGRFTISRDNAENTVYLRTNSLKPEDTAVYYCNARGEYHSGNEYDYWGQGTQVTVSS	Minimal
C07: ALPP/ALPPL2 targeting VHH domain, SEQ ID NO: 25 (protein) VHH: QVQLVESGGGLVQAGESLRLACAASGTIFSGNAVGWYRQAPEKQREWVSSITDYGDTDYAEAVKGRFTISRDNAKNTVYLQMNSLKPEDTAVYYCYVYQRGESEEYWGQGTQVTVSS	No binding
F08: ALPP/ALPPL2 targeting VHH domain, SEQ ID NO: 35 (protein) VHH: QVQLVESGGGSVQAGGSLRLSCAASGPSLSNYAMGWFRQAPGKEREFVAGISWGGGRTSYTDSVKGRFTISRDNAKNTVYLQMNNLKPEDTGVYYCAGRYGRGRNVEYEYDYWGQGTQVTVSS	Minimal

Would you kindly look at the next entry?
KDapp CHO-ALPI lookup needed for B01: ALPP/ALPPL2 targeting VHH domain, SEQ ID NO: 20 (protein) VHH: QVQLVESGGGLVQAGGSLRLSCEVTRSPMPIDTMAWYRQAPGRQRELVAIISRSGSTNYADSVKGRFTISRNDTKSTMYKSTMYLKMNTLELEDTGVYYCNAVGLWNGAEYWGQGTQVTVSS , thanks.
No binding
